Measured values drawn from patent US9440962B2 for this set.

Answer each item with its documented melting point.
One number for each entry, in °C.

Cc1ccc(-n2nccc2-c2ccc3noc(-c4ccc(Cl)cc4)c3c2)cc1 ... 204
COc1ccc(-c2onc3ccc(-c4ccnn4-c4ccc(F)cc4)cc23)cc1F ... 162
COc1ccc(-c2onc3ccc(-c4ccnn4-c4ccc(F)cc4F)cc23)cc1 ... 165
Fc1ccc(-n2nccc2-c2ccc3noc(-c4ccc(Cl)cc4)c3c2)cc1 ... 188
Cc1ccc(-n2nccc2-c2ccc3noc(-c4ccc(F)cc4)c3c2)cc1 ... 173

Would you be so kind as to report melting point for each listed record?
1. Cc1ccc(-n2nccc2-c2ccc3noc(-c4ccc(C(F)(F)F)cc4)c3c2)cc1
2. Fc1ccc(-c2onc3ccc(-c4ccnn4-c4ccc(F)cc4F)cc23)cc1
3. Clc1ccc(-c2onc3ccc(-c4ccnn4-c4ccccc4Cl)cc23)cc1
4. Fc1ccc(-c2onc3ccc(-c4ccnn4-c4ccccc4F)cc23)cc1
5. Fc1cccc(-c2onc3ccc(-c4ccnn4-c4ccc(F)cc4F)cc23)c1
6. Fc1ccc(-c2onc3ccc(-c4ccnn4-c4ccc(Cl)cc4)cc23)cc1
7. Fc1ccc(-c2onc3ccc(-c4ccnn4-c4cccc(F)c4)cc23)cc1
8. c1ccc(-c2onc3ccc(-c4ccnn4-c4ccccc4)cc23)cc1

-- reply
1. 173
2. 149
3. 172
4. 171
5. 165
6. 154
7. 175
8. 163
